Experiment: Human HepG2 cell viability assay in 384 well format
Type: toxicity, cell-based
Set-up: dose 125 nL, time 70.5 hour; concentration not given beside the values
Conditions: HepG2 cells, read-out: Inhibition
cytotoxicity at 70.5 h for assorted compounds
Please give a number only; it is taken to be in %.

> print(dat)
                                   compound       measured.property  numeric.result
1  CCCc1cc(N2CCC(NC3CCS(=O)(=O)C3)CC2)nc(C)n1 (stereo unspecified)  cytotoxicity at 70.5 h           -4.65
2  O=C(c1cc[nH]n1)N1CCc2ncnc(N3CCSCC3)c2CC1  cytotoxicity at 70.5 h            10.4
3  Cc1ccc(C(=O)N2CCC3(CCC(=O)N(CC(N)=O)C3)CC2)c(O)c1  cytotoxicity at 70.5 h           -9.11
4  COc1ccc(C2(c3nc(-c4cccnc4)no3)CCOCC2)cc1  cytotoxicity at 70.5 h            34.4
5  CCOC(=O)N1CCN(C(=O)c2sc(-c3ccccc3)nc2C)CC1  cytotoxicity at 70.5 h            48.7
6  Oc1cc(C2CCCN(Cc3cccs3)C2)nc(-c2ccccn2)n1 (stereo unspecified)  cytotoxicity at 70.5 h            60.4

*Q* Supply cytotoxicity at 70.5 h value. Item: N#Cc1cccnc1N1CCCN(C(=O)CCn2cccn2)CC1
*A* -9.39

*Q* Supply cytotoxicity at 70.5 h value. Item: CCc1ncc(C(=O)N2CCOCC2CC(=O)c2ccccc2)s1 (stereo unspecified)
*A* -5.53

*Q* Supply cytotoxicity at 70.5 h value. Item: COc1ncccc1CNC(=O)N1CCC(CN2CCOCC2)CC1
*A* 13.3

*Q* Supply cytotoxicity at 70.5 h value. Item: CCCOc1cccc(NS(=O)(=O)c2cc(C(=O)O)cs2)c1
*A* 4.51

*Q* Supply cytotoxicity at 70.5 h value. Item: COc1ccnc(N2CCN(C(C)c3nc(C)no3)CC2)n1 (stereo unspecified)
*A* 4.57

* * *

Test: Human HepG2 cell viability assay in 384 well format
Type: toxicity, cell-based
Set-up: dose 125 nL, time 70.5 hour; concentration not given beside the values
Details: HepG2 cells, read-out: Inhibition
measured_property: cytotoxicity at 70.5 h
Provide a numeric answer, followed by its unit.

> print(dat)
                                   molecule       measured.property  result
1                   NCC1(c2cccc(F)c2)CCOCC1  cytotoxicity at 70.5 h   19.1%
2  COCCNC(=O)NCCCOC1CCCc2ccccc21 (configuration not stated)  cytotoxicity at 70.5 h   1.91%
3  Cn1cccc1-c1nnc(C2(c3ccc4c(c3)OCO4)CCOCC2)o1  cytotoxicity at 70.5 h  -9.42%

*Q* Supply cytotoxicity at 70.5 h value. Item: c1cncc(CN2CCCC(c3nnc(-c4cnccn4)o3)C2)c1 (configuration not stated)
*A* -14%

*Q* Supply cytotoxicity at 70.5 h value. Item: c1nc(N2CCOC(Cn3cncn3)C2)c2cc[nH]c2n1 (configuration not stated)
*A* -6.11%

* * *

Assay: Human HepG2 cell viability assay in 384 well format
Type: toxicity, cell-based
Design: dose 125 nL, time 70.5 hour; concentration not given beside the values
Conditions: HepG2 cells, read-out: Inhibition
measured_property: cytotoxicity at 70.5 h (%)
Please give a number only; it is taken to be in %.

> print(dat)
                                   molecule       measured.property  measurement.unit  numeric.result
1       CNC(=O)CCS(=O)(=O)Cc1nnnn1-c1ccccc1  cytotoxicity at 70.5 h                 %           -3.85
2  CCC(Nc1ncccn1)c1cccnc1 (centres undefined)  cytotoxicity at 70.5 h                 %            8.36
3  CCCS(=O)(=O)NCC1OCCc2cn(CC3CCOCC3)nc21 (centres undefined)  cytotoxicity at 70.5 h                 %            30.2
4   Cc1ccc(C(=O)N2CCC3(CCCC3)CC2)c(=O)[nH]1  cytotoxicity at 70.5 h                 %           -99.3
5   Cc1cccc(-n2nc(CC(C)C)nc2CCC(=O)N(C)C)c1  cytotoxicity at 70.5 h                 %           0.846
6  CN(C)C(=O)C1CN(Cc2ccc(C#N)cc2F)c2ccccc2O1 (centres undefined)  cytotoxicity at 70.5 h                 %          -0.947

*Q* Supply cytotoxicity at 70.5 h value. Item: CCN1CCC(NC(=O)Cn2cc(C)c3ccccc32)CC1
*A* 8.33

*Q* Supply cytotoxicity at 70.5 h value. Item: COCCCNC(=O)CN1CCSC(c2ccccc2)C1 (centres undefined)
*A* 3.9

*Q* Supply cytotoxicity at 70.5 h value. Item: Cc1n[nH]cc1C(=O)NCc1cccnc1N1CCc2ccccc2C1
*A* -3.05

*Q* Supply cytotoxicity at 70.5 h value. Item: CC(NC(=O)CNc1cc2c(cc1Cl)OCCO2)c1ccco1 (centres undefined)
*A* -8.18

*Q* Supply cytotoxicity at 70.5 h value. Item: N#Cc1cnc2c(F)cc(F)cc2c1NC1CCN(CC(N)=O)CC1
*A* -5.14

*Q* Supply cytotoxicity at 70.5 h value. Item: COc1ccccc1C(=O)NS(=O)(=O)c1cccc(C#N)c1
*A* -7.53

*Q* Supply cytotoxicity at 70.5 h value. Item: Cn1cc(C2=NOC(C(=O)NC3(c4ccccc4)CCCC3)C2)cn1 (centres undefined)
*A* -3.59

*Q* Supply cytotoxicity at 70.5 h value. Item: COc1cc(N2CCC[C@]3(C(=O)O)CN(C(C)C)C[C@@H]3C2)ncn1
*A* -3.84

*Q* Supply cytotoxicity at 70.5 h value. Item: COCCNC(=O)C1CCCN(c2ccc3nncn3n2)C1 (centres undefined)
*A* 9.49

*Q* Supply cytotoxicity at 70.5 h value. Item: CCCc1nc(C(=O)N(C)Cc2cnn(-c3cccc(OC)c3)c2)cs1
*A* -8.69

*Q* Supply cytotoxicity at 70.5 h value. Item: CC(C)Cc1nc(CO)n(-c2ccc3c(c2)OCCO3)n1
*A* 1.83

*Q* Supply cytotoxicity at 70.5 h value. Item: CC(C)C(=O)N1CCN(Cc2cc(-c3ccncc3)nn2C)CC1
*A* 31.9

*Q* Supply cytotoxicity at 70.5 h value. Item: c1ccc(OCC2CC3(CCN(CC4CCOCC4)CC3)CO2)nc1 (centres undefined)
*A* 62.9

*Q* Supply cytotoxicity at 70.5 h value. Item: CCOc1ccc(-c2ccnc(CC)n2)cc1C(=O)O
*A* -7.1

*Q* Supply cytotoxicity at 70.5 h value. Item: CNC(=O)C1(C)CN(c2nnc(C)c3ccccc23)CCO1 (centres undefined)
*A* -6.81
